This section presents molecules with their documented EC50 values.
- System: HCV replicon cells
- assay: HCV replicon FRET / luciferase assay (96-well plates)
- Assay type: cell-based
- assay_setup: Hepatitis C virus, Table 1a; HCV replicon; read-out: EC50

Please review the entries below; each comes with its answer.
>>> experimental_value("CCCCNC(=O)c1cccc(-c2ccc3oc(-c4ccc(F)cc4)c(C(=O)NC)c3c2)c1")
"< 0.25 µM"
>>> experimental_value("CNC(=O)c1c(-c2ccc(F)cc2)oc2ccc(-c3ccc(C(=O)NC(C)(C)C)cc3)cc12")
"0.25 to 1 µM"
>>> experimental_value("CNC(=O)c1c(-c2ccc(F)cc2)oc2ccc(-c3ccc(C(=O)N(C)CC(=O)N(C)C)cc3)cc12")
"> 10 µM"
>>> experimental_value("CCCC[C@H](CO)NC(=O)c1cccc(-c2ccc3oc(-c4ccc(F)cc4)c(C(=O)NC)c3c2)c1 [drawing 232]")
"1 to 10 µM"
>>> experimental_value("CNC(=O)Nc1c(-c2ccc(F)cc2)oc2ccc(OC(C)C)cc12")
"> 10 µM"

Please give the documented EC50 of CNC(=O)c1c(-c2ccc(F)cc2)oc2ccc(-c3cc(Cl)cnc3F)cc12
1 to 10 µM

Please give the documented EC50 of CCC[C@H](CO)NC(=O)c1cccc(-c2ccc3oc(-c4ccc(F)cc4)c(C(=O)NC)c3c2)c1 [drawing 228]
1 to 10 µM

Please give the documented EC50 of CCOCCNC(=O)c1cccc(-c2ccc3oc(-c4ccc(F)cc4)c(C(=O)NC)c3c2)c1
0.25 to 1 µM

Please give the documented EC50 of CNC(=O)c1c(-c2ccc(F)cc2)oc2ccc(-c3cccc(C#N)c3)cc12
0.25 to 1 µM

Please give the documented EC50 of CNC(=O)c1c(-c2ccc(F)cc2)oc2ccc(-c3ccc(Cl)c(C(=O)NC(C)(C)c4ccccc4)c3)cc12
< 0.25 µM

----------
This section presents molecules with their documented IC50 values.
- target_entity: HCV NS5B RdRp genotype 1b (Hepatitis C virus genotype 1b, UniProt Q9WMX2)
- Construct: The protein was expressed with an 18 amino acid C-terminal truncation to enhance the solubility; made in house; host or cells: E. coli BL21(DE3), pET21a vector
- Sequence (Q9WMX2 2420-2992): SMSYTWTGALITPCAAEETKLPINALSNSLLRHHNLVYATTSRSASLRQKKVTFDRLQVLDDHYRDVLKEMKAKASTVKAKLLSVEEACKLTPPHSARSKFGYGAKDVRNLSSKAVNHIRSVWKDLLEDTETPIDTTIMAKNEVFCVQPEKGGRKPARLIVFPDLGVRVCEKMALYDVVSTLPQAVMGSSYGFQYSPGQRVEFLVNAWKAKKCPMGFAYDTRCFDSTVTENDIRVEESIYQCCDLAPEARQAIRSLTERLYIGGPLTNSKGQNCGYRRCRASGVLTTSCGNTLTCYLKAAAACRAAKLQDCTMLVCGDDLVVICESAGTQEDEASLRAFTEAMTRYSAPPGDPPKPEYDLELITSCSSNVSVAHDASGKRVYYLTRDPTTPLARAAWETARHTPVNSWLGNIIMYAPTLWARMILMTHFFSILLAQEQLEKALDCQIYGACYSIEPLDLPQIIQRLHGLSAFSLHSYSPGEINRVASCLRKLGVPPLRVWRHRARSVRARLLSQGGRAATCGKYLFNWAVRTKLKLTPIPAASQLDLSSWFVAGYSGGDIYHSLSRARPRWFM
- assay: Standard HCV NS5B RdRp enzyme assay
- Format: biochemical
- assay_setup: Table 1b; HCV NS5B RdRp genotype 1b; read-out: IC50

Please review the entries below; each comes with its answer.
>>> experimental_value("CNC(=O)c1c(-c2ccc(F)cc2)oc2ccc(-c3cc(C(=O)NC4(c5ccccn5)CC4)ccc3OCCO)cc12")
"< 250 nM"
>>> experimental_value("CNC(=O)c1c(-c2ccc(F)cc2)oc2ccc(-c3cc(C(=O)NC4(c5nnc(C(N)=O)[nH]5)CC4)ccc3C)cc12")
"< 250 nM"
>>> experimental_value("CNC(=O)c1c(-c2ccc(F)cc2)oc2ccc(-c3cc(C(=O)NCC(C)C)ccc3OCC3CCCN3C(=O)OC(C)(C)C)cc12 (stereo not shown)")
"> 10000 nM"
>>> experimental_value("CNC(=O)c1c(-c2ccc(F)cc2)oc2ccc(-c3ccc(-c4ccccc4C(N)=O)c(C(=O)NC4(c5ccccn5)CC4)c3)cc12")
"< 250 nM"
>>> experimental_value("CNC(=O)c1c(-c2ccc(F)cc2)oc2ccc(-c3cc(C(=O)NCC(C)C)ccc3OCc3ccc(C(F)(F)F)cn3)cc12")
"> 10000 nM"
>>> experimental_value("CNC(=O)c1c(-c2ccc(F)cc2)oc2cc(N)c(-c3cccc(C(=O)NCC(C)C)c3)cc12")
"< 250 nM"

Check HCV NS5B RdRp genotype 1b (Hepatitis C virus genotype 1b, UniProt Q9WMX2) data and give IC50 for CNC(=O)c1c(-c2ccc(F)cc2)oc2ccc(-c3cc(OC(C)C)cc(C(=O)NCC(C)C)c3)cc12 .
1000 to 10000 nM

Check HCV NS5B RdRp genotype 1b (Hepatitis C virus genotype 1b, UniProt Q9WMX2) data and give IC50 for CNC(=O)c1c(-c2ccc(F)cc2)oc2ccc(-c3cc(C(=O)NC4(C(=O)O)CC4)c(O)cc3Cl)cc12 .
250 to 1000 nM

Where do these numbers come from? They come from patent US8309558B2.
